Target: 5-hydroxytryptamine receptor 2A (Homo sapiens) (UniProt P28223)
Sequence (P28223 whole entry, looked up): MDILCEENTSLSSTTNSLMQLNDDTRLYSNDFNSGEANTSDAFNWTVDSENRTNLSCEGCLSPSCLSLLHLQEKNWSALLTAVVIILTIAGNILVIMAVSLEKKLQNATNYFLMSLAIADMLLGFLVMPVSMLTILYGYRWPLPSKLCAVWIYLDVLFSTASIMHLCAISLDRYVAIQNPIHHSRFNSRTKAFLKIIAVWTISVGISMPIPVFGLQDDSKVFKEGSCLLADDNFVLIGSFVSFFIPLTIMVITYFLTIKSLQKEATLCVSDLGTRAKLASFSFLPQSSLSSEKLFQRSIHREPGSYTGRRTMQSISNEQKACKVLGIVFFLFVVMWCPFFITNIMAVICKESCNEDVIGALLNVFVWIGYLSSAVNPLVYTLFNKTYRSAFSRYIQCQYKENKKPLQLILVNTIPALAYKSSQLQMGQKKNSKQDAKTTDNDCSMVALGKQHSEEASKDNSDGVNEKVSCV
Experiment: 5-hydroxytryptamine receptor 2A (HTR2A) small molecule agonists, cell-based qHTS assay (AID 1963587); also: nearly all actives have a fitted effect of over 30% in size
Settings: HTR2A-CHO cells, calcium flux fluorescence, agonist mode; series mostly up to 76.8 µM
Results filed as inconclusive are left out. Activity calls are given as the source filed them. Calls follow the shape of the full dose curve.
Outcomes: y (active), n (inactive)

[
  {
    "Compound": "CC1=Nc2ccccc2C1(C)C",
    "Assigned Class": "n"
  },
  {
    "Compound": "COC(=O)c1ccc(C(=O)O)cc1",
    "Assigned Class": "n"
  },
  {
    "Compound": "NS(=O)(=O)c1cc2c(cc1Cl)NC(CSCc1ccccc1)=NS2(=O)=O",
    "Assigned Class": "n"
  },
  {
    "Compound": "C=C(C)C(=O)OCCO",
    "Assigned Class": "n"
  },
  {
    "Compound": "CC(C)Nc1ccc(NC(C)C)c2c1C(=O)c1ccccc1C2=O",
    "Assigned Class": "n"
  },
  {
    "Compound": "CCCn1cc[n+](C)c1C",
    "Assigned Class": "n"
  },
  {
    "Compound": "CC(=O)SCc1ccco1",
    "Assigned Class": "n"
  },
  {
    "Compound": "CC(=O)OC(C)OC(=O)C(C)c1ccc(-c2ccccc2)c(F)c1 (stereo not given)",
    "Assigned Class": "n"
  },
  {
    "Compound": "c1ccc(B(c2ccccc2)c2ccccc2)cc1",
    "Assigned Class": "n"
  },
  {
    "Compound": "CC(=O)c1ccc2c(c1)N(CCCN1CCC(CCO)CC1)c1ccccc1S2",
    "Assigned Class": "n"
  },
  {
    "Compound": "CCCc1ccccc1O",
    "Assigned Class": "n"
  },
  {
    "Compound": "CCOc1ccc2nc(N)sc2c1",
    "Assigned Class": "n"
  },
  {
    "Compound": "CC(C)(C)c1ccc(-c2ccc(C(C)(C)C)cc2)cc1",
    "Assigned Class": "n"
  },
  {
    "Compound": "C=C(C)CS(=O)(=O)O",
    "Assigned Class": "n"
  },
  {
    "Compound": "O=C=Nc1ccc(Cl)c(Cl)c1",
    "Assigned Class": "n"
  },
  {
    "Compound": "c1ccc(Cc2ccccc2)cc1",
    "Assigned Class": "n"
  },
  {
    "Compound": "CCCCN1C(=O)[C@@H]([C@H](O)C2CCCCC2)NC(=O)C12CCN(Cc1ccc(Oc3ccc(C(=O)O)cc3)cc1)CC2",
    "Assigned Class": "y"
  },
  {
    "Compound": "O=CC=C(c1ccccc1)c1ccccc1",
    "Assigned Class": "n"
  },
  {
    "Compound": "COC(=O)C1=C(C)NC(COC(N)=O)=C(C(=O)OC(C)C)C1c1cccc(Cl)c1Cl (stereo not given)",
    "Assigned Class": "n"
  },
  {
    "Compound": "CC(C)(C)C(=O)c1ccccc1",
    "Assigned Class": "n"
  },
  {
    "Compound": "CC(C)C(=O)OCCc1ccccc1",
    "Assigned Class": "n"
  },
  {
    "Compound": "COc1ccc2cc(S(=O)(=O)N[C@H](CC(=O)N[C@H](Cc3ccc(CN4[C@H](C)CCC[C@@H]4C)cc3)C(=O)N(C)C(C)C)c3ccc4c(c3)OCO4)ccc2c1",
    "Assigned Class": "n"
  },
  {
    "Compound": "CC(C)(c1ccccc1)c1ccccc1",
    "Assigned Class": "n"
  },
  {
    "Compound": "O=C1Cc2cc(CCN3CCN(c4nsc5ccccc45)CC3)c(Cl)cc2N1",
    "Assigned Class": "n"
  },
  {
    "Compound": "OC/C(Br)=C(\\Br)CO",
    "Assigned Class": "n"
  },
  {
    "Compound": "CN(CCCN1c2ccccc2CCc2ccccc21)CC(=O)c1ccc(Cl)cc1",
    "Assigned Class": "n"
  },
  {
    "Compound": "N/C(=N\\N=C\\c1ccc(Cl)cc1)N/N=C/c1ccc(Cl)cc1",
    "Assigned Class": "n"
  },
  {
    "Compound": "CN1C(C)(C)CC(O)CC1(C)C",
    "Assigned Class": "n"
  },
  {
    "Compound": "CCCCCCCCCCCCN1CCCCCC1=O",
    "Assigned Class": "n"
  },
  {
    "Compound": "COP(=O)(O)OP(=O)(O)OC",
    "Assigned Class": "n"
  },
  {
    "Compound": "NCCCC(N)(C(=O)O)C(F)F (stereo not given)",
    "Assigned Class": "n"
  },
  {
    "Compound": "CC(C)c1ccc2cc(C(C)C)ccc2c1",
    "Assigned Class": "n"
  },
  {
    "Compound": "CCC/C=C(\\C=O)CC",
    "Assigned Class": "n"
  },
  {
    "Compound": "CCN(Cc1cccc(S(=O)(=O)O)c1)c1ccc(C(=C2C=CC(=[N+](CC)Cc3cccc(S(=O)(=O)O)c3)C=C2)c2ccccc2S(=O)(=O)[O-])cc1",
    "Assigned Class": "n"
  },
  {
    "Compound": "O=S1(=O)CCCC1",
    "Assigned Class": "n"
  },
  {
    "Compound": "Cc1ncc(COP(=O)(O)O)c(C=O)c1O",
    "Assigned Class": "n"
  },
  {
    "Compound": "Nc1ccc(-c2ccc(F)cc2)cc1",
    "Assigned Class": "n"
  },
  {
    "Compound": "Cc1cccc(C(=O)O)c1O",
    "Assigned Class": "n"
  },
  {
    "Compound": "Nc1cccc2c(N)cccc12",
    "Assigned Class": "n"
  },
  {
    "Compound": "C=CC(=O)Nc1cc2c(Nc3ccc(F)c(Cl)c3)ncnc2cc1OCCCN1CCOCC1",
    "Assigned Class": "n"
  },
  {
    "Compound": "CCOC(=O)C1=NN(c2ccccc2)C(=O)C1",
    "Assigned Class": "n"
  },
  {
    "Compound": "Cc1cccc(OCC(O)CNC(C)(C)C)c1C (stereo not given)",
    "Assigned Class": "n"
  },
  {
    "Compound": "COc1cc2c(cc1OC)[C@@H]1CC(=O)[C@@H](CC(C)C)CN1CC2",
    "Assigned Class": "n"
  },
  {
    "Compound": "O=C(NN1CCCC1)NS(=O)(=O)c1ccc(Cl)cc1",
    "Assigned Class": "n"
  },
  {
    "Compound": "COc1ccc(-c2nc3ccc(C4=NNC(=O)CC4C)cc3[nH]2)cc1 (stereo not given)",
    "Assigned Class": "n"
  }
]
